Origin of values: the Human Domainome abundance scans (Beltran et al. 2025)

B1: Far upstream element-binding protein 3, residues 75 to 150; numbered along this chain, Q96I24 (parent)
chain: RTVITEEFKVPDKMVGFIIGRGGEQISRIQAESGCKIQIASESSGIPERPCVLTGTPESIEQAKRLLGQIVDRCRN

variants of: B1; test: abundance fitness (aPCA) (normalised: wild type 0, dead -1); higher = more abundant; growth selection in yeast, the domain comes from the species named; settings: Homo sapiens
measure: abundance fitness
Give bare numbers.

In the examples that follow, each entry is paired with its recorded abundance fitness.
S43L    -0.102
G34H    -0.155
P47R    -0.065
E24A    -0.008
K36I    -0.112
T2Y    -0.069

Please supply abundance fitness for each of the following items, keeping them in order.
1. R1K
2. E24T
3. E58I
4. I29L
5. G34C

-- reply
1: 0.008; 2: 0.008; 3: -0.256; 4: -0.034; 5: -0.268
